Target or system UniProt:P29350: recorded IC50 listed per item.
Sequence (P29350 whole entry): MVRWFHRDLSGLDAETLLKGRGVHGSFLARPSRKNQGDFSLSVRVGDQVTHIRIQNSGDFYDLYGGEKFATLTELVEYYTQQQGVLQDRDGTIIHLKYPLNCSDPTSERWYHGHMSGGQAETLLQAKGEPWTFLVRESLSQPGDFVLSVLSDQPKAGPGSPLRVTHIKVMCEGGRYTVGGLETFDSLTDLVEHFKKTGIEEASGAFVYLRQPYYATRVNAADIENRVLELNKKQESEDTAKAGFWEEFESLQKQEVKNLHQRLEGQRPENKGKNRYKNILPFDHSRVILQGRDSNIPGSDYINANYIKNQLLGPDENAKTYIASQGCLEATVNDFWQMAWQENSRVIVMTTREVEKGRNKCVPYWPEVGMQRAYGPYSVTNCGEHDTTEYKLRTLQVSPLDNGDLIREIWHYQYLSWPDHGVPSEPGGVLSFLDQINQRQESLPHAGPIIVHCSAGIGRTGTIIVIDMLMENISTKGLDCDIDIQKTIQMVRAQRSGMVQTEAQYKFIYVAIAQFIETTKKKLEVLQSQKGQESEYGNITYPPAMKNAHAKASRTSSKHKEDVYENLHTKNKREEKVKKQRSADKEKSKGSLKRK

Req: Name the recorded IC50 for `Cc1cccc(-c2cccc(-c3noc(Cc4c[nH]c5ccccc45)n3)c2)c1` .
Resp: > 120 µM

Req: Any idea what IC50 was measured for `CCCc1ccc(-c2cccc(-c3noc(Cc4c[nH]c5ccccc45)n3)c2)cc1` ?
Resp: > 120 µM

Req: Name the reported IC50 value associated with the compound `Nc1ccc(-c2ccc(-c3noc(Cc4c[nH]c5ccccc45)n3)s2)cc1`
Resp: > 120 µM

Req: // returns reported IC50 for input `CCCCc1ccc(-c2ccc(-c3noc(Cc4c[nH]c5ccccc45)n3)s2)cc1`
Resp: > 120 µM

Req: Reported IC50, compound `Brc1cccc(-c2noc(Cc3c[nH]c4ccccc34)n2)c1` : ____
Resp: > 120 µM

Sourced from ChEMBL document CHEMBL3758136
